- targetOfAssay: Human SST5 somatostatin receptor (SSTR5) (Homo sapiens, UniProt P35346)
- Construct: expressed in transfected cells; host or cells: HEK-293 EBNA
- Sequence (P35346 whole entry): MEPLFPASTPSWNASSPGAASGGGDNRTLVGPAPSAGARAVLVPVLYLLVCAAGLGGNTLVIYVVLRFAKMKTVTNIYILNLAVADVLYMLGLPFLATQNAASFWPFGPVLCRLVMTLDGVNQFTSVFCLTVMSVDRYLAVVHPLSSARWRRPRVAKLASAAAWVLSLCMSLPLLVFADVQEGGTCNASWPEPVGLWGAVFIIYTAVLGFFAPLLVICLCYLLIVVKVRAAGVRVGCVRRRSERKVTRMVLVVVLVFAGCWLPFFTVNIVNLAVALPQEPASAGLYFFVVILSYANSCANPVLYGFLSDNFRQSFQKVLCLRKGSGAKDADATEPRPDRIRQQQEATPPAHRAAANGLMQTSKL
- testProtocol: Filter plate assay for SST5 receptor, displacement of [125I]SST-14
- Type: binding
- appliedConditions: 0.5 uM
readoutLabel: SSTR5 Inhib 0.5 uM % (inhibition of binding of SST-14 to SSTR5) (%)
Answers are plain numbers, in %.

# compound, unitAnnotation, observedValue
rows = [
    ("CSC1O[C@H](COCc2ccc3ccccc3c2)[C@@H](O)[C@@H](OCc2ccccc2)[C@H]1NC(=O)CCNC(=N)N (some centres unmarked)", "%", 58),
    ("CSC1O[C@H](COCc2ccccc2)[C@@H](O)[C@@H](OCc2ccc(Cl)cc2)[C@H]1NC(=O)CCNC(=N)N (some centres unmarked)", "%", 37),
    ("COC1C(O)C(COCc2ccc3ccccc3c2)OC(OCCc2ccccc2)C1NC(=O)CCCN (centres unmarked)", "%", 38),
]

For each of the items listed, what is its SSTR5 Inhib 0.5 uM % (inhibition of binding of SST-14 to SSTR5)?
1. COC1C(O)C(COCc2ccc3ccccc3c2)OC(OCc2ccc(Cl)cc2)C1NC(=O)C1CCCN1 (centres unmarked)
2. COC[C@H]1OC(OCc2ccc3ccccc3c2)[C@H](NC(=O)CCCNC(=N)N)[C@@H](OCc2ccccc2)[C@@H]1O (some centres unmarked)
3. COC1C(O)C(COCc2ccc(-c3ccccc3)cc2)OC(OCc2ccc(Cl)cc2)C1NC(=O)CNC(=N)N (centres unmarked)
4. CSC1O[C@H](COCc2ccc3ccccc3c2)[C@@H](O)[C@@H](OCc2ccc(-c3ccccc3)cc2)[C@H]1NC(=O)CN (some centres unmarked)

Response:
[76, 45, 47, 41]

* * *

- targetOfAssay: Human SST5 somatostatin receptor (SSTR5) (Homo sapiens, UniProt P35346)
- Construct: expressed in transfected cells; host or cells: HEK-293 EBNA
- testProtocol: Filter plate assay for SST5 receptor, displacement of [125I]SST-14
- Format: binding
- appliedConditions: 0.5 uM
I'd appreciate it if you could supply SSTR5 Inhib 0.5 uM % (inhibition of binding of SST-14 to SSTR5) values for the items below.
Give bare numbers, in %.

# compound, targetOfAssay, observedValue
rows = [
    ("CSC1O[C@H](COCc2ccc3ccccc3c2)[C@@H](O)[C@@H](OCc2ccc3ccccc3c2)[C@H]1NC(=O)CCNC(=N)N (stereo partly shown)", "Human SST5 somatostatin receptor (SSTR5) (Homo sapiens, UniProt P35346)", 47),
]

For each of the items listed, what is its SSTR5 Inhib 0.5 uM % (inhibition of binding of SST-14 to SSTR5)?
1. COC[C@H]1OC(OCc2ccccc2)[C@H](NC(=O)CCCN)[C@H](OCc2ccc(Cl)cc2)[C@@H]1O (stereo partly shown)
2. CSC1O[C@H](COCc2ccccc2)[C@@H](O)[C@@H](OCc2ccc(-c3ccccc3)cc2)[C@H]1NC(=O)CCCN (stereo partly shown)
3. CO[C@H]1[C@H](O)[C@@H](COCc2ccc(Cl)cc2)OC(OCc2ccc(Cl)cc2)[C@@H]1NC(=O)CCCN (stereo partly shown)
4. COC[C@H]1OC(OCc2ccc(Cl)cc2)[C@H](NC(=O)CCCN)[C@@H](OCc2cccc(O)c2)[C@@H]1O (stereo partly shown)
5. COC[C@H]1OC(OCc2ccc(Cl)cc2)[C@H](NC(=O)CCNC(=N)N)[C@H](OCc2ccc(Cl)cc2)[C@@H]1O (stereo partly shown)

Response:
1. 66
2. 45
3. 39
4. 50
5. 49

Prompt: Which SSTR5 Inhib 0.5 uM % (inhibition of binding of SST-14 to SSTR5) is reported for this compound? COC[C@H]1OC(OCc2ccc3ccccc3c2)[C@H](NC(=O)CCCN)[C@H](OCc2ccccc2)[C@@H]1O (stereo partly shown)
Response: 52
